Hi there, I'd appreciate the recorded pKi for every entry that follows.
- study-target: purified ITK (Invitrogen PV3875) (Homo sapiens, UniProt Q08881)
- Construct: purchased Invitrogen PV3875
- Sequence (Q08881 1-620): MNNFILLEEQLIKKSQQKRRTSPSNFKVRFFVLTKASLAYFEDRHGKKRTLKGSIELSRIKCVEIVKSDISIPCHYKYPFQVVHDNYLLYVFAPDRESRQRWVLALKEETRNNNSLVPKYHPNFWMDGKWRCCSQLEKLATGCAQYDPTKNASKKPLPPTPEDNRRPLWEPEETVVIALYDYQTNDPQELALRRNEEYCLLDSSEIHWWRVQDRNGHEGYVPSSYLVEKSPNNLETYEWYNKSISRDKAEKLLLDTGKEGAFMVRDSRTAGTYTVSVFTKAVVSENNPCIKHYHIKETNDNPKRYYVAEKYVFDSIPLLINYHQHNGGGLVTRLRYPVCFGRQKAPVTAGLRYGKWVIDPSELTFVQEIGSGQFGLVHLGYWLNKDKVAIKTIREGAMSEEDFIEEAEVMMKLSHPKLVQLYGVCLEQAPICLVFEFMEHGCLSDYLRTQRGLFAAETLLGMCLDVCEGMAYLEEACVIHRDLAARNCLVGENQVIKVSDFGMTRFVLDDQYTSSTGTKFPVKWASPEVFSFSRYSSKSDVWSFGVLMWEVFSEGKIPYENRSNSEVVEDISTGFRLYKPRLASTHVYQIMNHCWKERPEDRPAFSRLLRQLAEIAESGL
- test-protocol: ITK peptide phosphorylation assay (Caliper LabChip or LCMS)
- Type: biochemical
- condition-set: Table 2, Examples 1-140, class symbols
pKi: −log10 of the molar value.

Query: Which pKi value is on record for CNCc1cccc(Cn2cc(NC(=O)c3n[nH]c4ccccc34)cn2)c1 ?
Response: 7.00 to 9.00

Query: Which pKi value is on record for N#Cc1ccc(Cn2cc(NC(=O)c3n[nH]c4cc(-c5cn[nH]c5)ccc34)cn2)s1 ?
Response: 9.00 to 11.00

Query: Which pKi value is on record for CNCc1ccc(Cn2cc(NC(=O)c3n[nH]c4ccccc34)cn2)cc1 ?
Response: 7.00 to 9.00

Query: Which pKi value is on record for O=C(Nc1cnn(Cc2cc(-c3ccccc3)on2)c1)c1n[nH]c2cc(-c3cn[nH]c3)ccc12 ?
Response: 7.00 to 9.00

Query: Which pKi value is on record for O=C(Nc1cnn(Cc2cscn2)c1)c1n[nH]c2cc(-c3cn[nH]c3)ccc12 ?
Response: 7.00 to 9.00

Query: Which pKi value is on record for CC(C)(O)CNCc1ccc(Cn2cc(NC(=O)c3n[nH]c4ccccc34)cn2)cc1 ?
Response: 7.00 to 9.00

Query: Which pKi value is on record for Nc1ccc(-c2ccc3c(C(=O)Nc4cnn(Cc5cscn5)c4)n[nH]c3c2)cn1 ?
Response: 7.00 to 9.00

Query: Which pKi value is on record for O=C(Nc1cnn(Cc2ccc(CN3CCC(O)C3)cc2)c1)c1n[nH]c2ccccc12 (centres unmarked) ?
Response: 7.00 to 9.00

----------
- study-target: purified ITK (Invitrogen PV3875) (Homo sapiens, UniProt Q08881)
- Construct: purchased Invitrogen PV3875
- Sequence (Q08881 1-620): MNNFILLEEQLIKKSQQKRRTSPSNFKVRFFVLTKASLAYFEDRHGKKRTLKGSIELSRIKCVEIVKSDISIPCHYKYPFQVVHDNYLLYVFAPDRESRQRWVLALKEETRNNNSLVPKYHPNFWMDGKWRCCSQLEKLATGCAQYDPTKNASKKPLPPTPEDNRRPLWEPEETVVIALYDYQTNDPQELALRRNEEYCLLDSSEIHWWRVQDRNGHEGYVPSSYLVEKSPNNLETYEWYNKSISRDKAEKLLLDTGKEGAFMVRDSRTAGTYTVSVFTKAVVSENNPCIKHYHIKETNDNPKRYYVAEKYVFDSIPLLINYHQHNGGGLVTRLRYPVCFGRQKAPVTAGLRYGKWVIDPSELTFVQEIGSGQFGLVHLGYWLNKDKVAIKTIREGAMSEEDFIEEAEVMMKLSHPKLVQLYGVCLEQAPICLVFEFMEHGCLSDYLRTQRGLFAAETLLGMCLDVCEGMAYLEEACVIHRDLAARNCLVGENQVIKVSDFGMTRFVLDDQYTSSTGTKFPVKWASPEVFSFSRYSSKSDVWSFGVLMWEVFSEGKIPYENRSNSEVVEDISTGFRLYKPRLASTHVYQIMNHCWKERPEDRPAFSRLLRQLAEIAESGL
- test-protocol: ITK peptide phosphorylation assay (Caliper LabChip or LCMS)
- Type: biochemical
- condition-set: Table 1, Examples 141-279
- Text: The ability of purified ITK (Invitrogen PV3875) to catalyze peptide phosphorylation is monitored using a Caliper LabChip 3000 microfluidic unit (Caliper assay) or by liquid chromatography-mass spectrometry (LCMS) using a Waters Acquity system (LCMS assay). […] Non-phosphorylated substrate and phosphorylated product peptides are separated and quantified using a Caliper LabChip 3000 instrument. […]
measure-name: pKi
Notebook: values listed as pKi are -log10 of the concentration (mol/L).

Query: Which pKi value is on record for CC[C@@H](c1cscn1)n1cc(NC(=O)c2n[nH]c3cc(-c4cn[nH]c4)ccc23)cn1 ?
Response: 9.15

Query: Which pKi value is on record for CN(CCC(c1ccccc1)n1cc(NC(=O)c2n[nH]c3ccccc23)cn1)CC(F)F (stereo not shown) [Example 273] ?
Response: 8.08

Query: Which pKi value is on record for O=C(Nc1cnn(Cc2cnc(N3CCOCC3)nc2)c1)c1n[nH]c2cc(-c3cn[nH]c3)ccc12 ?
Response: 8.63

Query: Which pKi value is on record for CN1CCN(c2ccc3c(C(=O)Nc4cnn(Cc5cccc(C#N)c5)c4)n[nH]c3c2)CC1 ?
Response: 6.43

The reported measurements were obtained from patent US20140309210A1.
